Target: UniProtKB O00329
Sequence (O00329 whole entry): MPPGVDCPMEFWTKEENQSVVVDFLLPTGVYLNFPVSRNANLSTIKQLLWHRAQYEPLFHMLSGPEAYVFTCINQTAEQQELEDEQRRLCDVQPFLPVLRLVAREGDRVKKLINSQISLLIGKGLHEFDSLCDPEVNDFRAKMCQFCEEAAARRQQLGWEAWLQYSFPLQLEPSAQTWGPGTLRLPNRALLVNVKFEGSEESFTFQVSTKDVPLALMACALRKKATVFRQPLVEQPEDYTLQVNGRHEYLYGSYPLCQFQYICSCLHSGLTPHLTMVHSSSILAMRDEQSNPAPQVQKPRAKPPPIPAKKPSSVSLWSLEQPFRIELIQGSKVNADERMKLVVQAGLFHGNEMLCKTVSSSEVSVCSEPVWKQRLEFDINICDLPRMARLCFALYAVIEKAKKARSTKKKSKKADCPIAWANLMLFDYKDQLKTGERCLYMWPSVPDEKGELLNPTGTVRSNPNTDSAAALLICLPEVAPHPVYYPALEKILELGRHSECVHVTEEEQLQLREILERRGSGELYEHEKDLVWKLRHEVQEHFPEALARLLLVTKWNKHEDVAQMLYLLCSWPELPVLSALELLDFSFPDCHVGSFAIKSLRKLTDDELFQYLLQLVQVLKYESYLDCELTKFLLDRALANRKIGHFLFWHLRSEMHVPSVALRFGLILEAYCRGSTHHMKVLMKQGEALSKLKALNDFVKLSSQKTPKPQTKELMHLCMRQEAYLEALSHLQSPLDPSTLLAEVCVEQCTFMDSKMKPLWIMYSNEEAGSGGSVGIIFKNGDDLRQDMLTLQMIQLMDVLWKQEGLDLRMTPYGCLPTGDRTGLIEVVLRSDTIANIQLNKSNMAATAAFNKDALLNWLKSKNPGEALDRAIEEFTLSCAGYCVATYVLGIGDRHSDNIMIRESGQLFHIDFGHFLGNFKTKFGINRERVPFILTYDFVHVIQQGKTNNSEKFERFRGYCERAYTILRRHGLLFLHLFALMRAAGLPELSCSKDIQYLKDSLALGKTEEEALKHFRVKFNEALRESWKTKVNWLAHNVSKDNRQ
Sequence (P27986 whole entry partner): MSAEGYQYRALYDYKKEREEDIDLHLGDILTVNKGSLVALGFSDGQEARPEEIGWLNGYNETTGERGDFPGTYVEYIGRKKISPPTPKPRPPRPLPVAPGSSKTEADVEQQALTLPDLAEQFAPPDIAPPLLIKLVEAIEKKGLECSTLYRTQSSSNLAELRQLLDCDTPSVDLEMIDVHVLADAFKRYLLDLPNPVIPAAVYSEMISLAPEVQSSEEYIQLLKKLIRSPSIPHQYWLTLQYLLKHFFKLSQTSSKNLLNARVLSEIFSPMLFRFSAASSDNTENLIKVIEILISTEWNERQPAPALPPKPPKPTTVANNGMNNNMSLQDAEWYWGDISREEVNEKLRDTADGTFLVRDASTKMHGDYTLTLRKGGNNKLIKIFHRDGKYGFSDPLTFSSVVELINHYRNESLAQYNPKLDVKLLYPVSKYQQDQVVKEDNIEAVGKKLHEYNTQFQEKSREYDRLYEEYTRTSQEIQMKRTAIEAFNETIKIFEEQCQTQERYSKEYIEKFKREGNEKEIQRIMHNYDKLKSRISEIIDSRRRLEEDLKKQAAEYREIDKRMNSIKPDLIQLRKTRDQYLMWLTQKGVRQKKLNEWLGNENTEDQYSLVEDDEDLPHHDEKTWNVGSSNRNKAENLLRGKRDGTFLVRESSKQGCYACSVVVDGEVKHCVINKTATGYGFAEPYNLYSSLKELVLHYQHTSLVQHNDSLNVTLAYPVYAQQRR
pIC50: −log10 of the molar value.
Property: pIC50; scope: individual compounds

{"smiles_input": "CC(C)n1c([C@H](C)NC(=O)c2c(N)nn3cccnc23)cc2cccc(C#Cc3cnn(C)c3)c2c1=O", "pIC50": "5.00 to 5.30"}
{"smiles_input": "C#Cc1cccc2nc([C@H](C)NC(=O)c3nccnc3N)n(-c3ccc(F)cc3)c(=O)c12", "pIC50": "5.30 to 6.00"}
{"smiles_input": "Cc1ccncc1C#Cc1cccc2cc([C@H](C)NC(=O)c3c(N)nn4cccnc34)n(-c3ccccc3)c(=O)c12", "pIC50": "5.00 to 5.30"}
{"smiles_input": "C[C@H](NC(=O)c1c(N)nn2cccnc12)c1cc2cccc(C#CC3CC3)c2c(=O)n1-c1ccccc1", "pIC50": "5.30 to 6.00"}
{"smiles_input": "C[C@H](NC(=O)c1c(N)nn2cccnc12)c1cc2cccc(/C=C/c3ccccc3)c2c(=O)n1-c1ccccc1", "pIC50": "5.00 to 5.30"}
{"smiles_input": "C[C@H](NC(=O)c1c(N)nn2cccnc12)c1cc2cccc(C#Cc3ccnn3C)c2c(=O)n1-c1ccccc1", "pIC50": "5.00 to 5.30"}
{"smiles_input": "C[C@H](NC(=O)c1nccnc1N)c1cc2cccc(C#Cc3cnn(C)c3)c2c(=O)n1-c1ccccc1", "pIC50": "5.30 to 6.00"}
